biological target: N-terminal catalytic site of the Angiotensin I converting enzyme (recombinant ACE) (Homo sapiens); test: Inhibition of the N-terminal catalytic site of recombinant ACE (fluorogenic substrate); assay type: biochemical
Sequence (P12821 40-624 limits assumed, species assumed): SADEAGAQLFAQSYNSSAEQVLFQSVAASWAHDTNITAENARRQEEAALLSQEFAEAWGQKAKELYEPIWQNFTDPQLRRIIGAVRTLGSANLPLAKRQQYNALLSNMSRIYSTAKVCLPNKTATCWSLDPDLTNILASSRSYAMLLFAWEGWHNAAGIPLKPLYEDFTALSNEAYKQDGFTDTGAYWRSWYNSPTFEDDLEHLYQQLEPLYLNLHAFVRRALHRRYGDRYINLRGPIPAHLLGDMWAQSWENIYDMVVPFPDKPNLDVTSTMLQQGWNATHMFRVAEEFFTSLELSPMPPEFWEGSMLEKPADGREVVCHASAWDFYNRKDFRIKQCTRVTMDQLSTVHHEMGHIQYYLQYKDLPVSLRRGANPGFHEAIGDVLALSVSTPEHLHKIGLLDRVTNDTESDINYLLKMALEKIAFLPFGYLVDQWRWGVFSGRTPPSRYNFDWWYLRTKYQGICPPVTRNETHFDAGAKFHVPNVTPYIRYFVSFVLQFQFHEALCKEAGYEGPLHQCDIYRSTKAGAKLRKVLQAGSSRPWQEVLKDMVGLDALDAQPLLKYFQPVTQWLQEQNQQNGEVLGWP
Square brackets hold non-standard residues; d marks the D form. Peptide text beside a SMILES is read from it. pGlu = O=C1CC[C@@H](C(=O)O)N1
Exercise: for every item that follows, state its recorded Ki.
Kindly answer with a numeric value in nM, unit omitted.

The compound identified as CC[C@H](C)[C@H](NC(=O)[C@H](CCC(N)=O)NC(=O)[C@@H]1CCCN1C(=O)[C@H](Cc1c[nH]cn1)NC(=O)[C@@H]1CCCN1C(=O)[C@H](Cc1c[nH]c2ccccc12)NC(=O)[C@H](CC(N)=O)NC(=O)[C@@H]1CCC(=O)N1)C(=O)N1CCC[C@H]1C(=O)N1CCC[C@H]1C(=O)O [EVASIN-10c, <ENWPHPQIPP] ([pGlu]NWPHPQIPP-OH; C-terminus assumed) registered its Ki at 200

// CC[C@H](C)[C@H](NC(=O)[C@@H]1CCCN1C(=O)[C@@H]1CCCN1C(=O)CNC(=O)[C@@H]1CCCN1C(=O)[C@H](C)NC(=O)[C@H](CCCNC(=N)N)NC(=O)CNC(=O)[C@@H]1CCC(=O)N1)C(=O)N1CCC[C@H]1C(=O)N1CCC[C@H]1C(=O)O [EVASIN-11b, <EGRAPGPPIPP] ([pGlu]GRAPGPPIPP-OH; C-terminus assumed) : Ki value = 3000

Reported Ki of CC[C@H](C)[C@H](NC(=O)[C@H](CC(N)=O)NC(=O)[C@@H]1CCCN1C(=O)CNC(=O)[C@@H]1CCCN1C(=O)[C@H](Cc1c[nH]c2ccccc12)NC(=O)[C@H](CO)NC(=O)[C@@H]1CCC(=O)N1)C(=O)N1CCC[C@H]1C(=O)N1CCC[C@H]1C(=O)O [EVASIN-10a, <ESWPGPNIPP] ([pGlu]SWPGPNIPP-OH; C-terminus assumed) : 130
